Molecular target: motilin receptor (Homo sapiens, UniProt O43193)
Sequence (O43193 whole entry, species assumed): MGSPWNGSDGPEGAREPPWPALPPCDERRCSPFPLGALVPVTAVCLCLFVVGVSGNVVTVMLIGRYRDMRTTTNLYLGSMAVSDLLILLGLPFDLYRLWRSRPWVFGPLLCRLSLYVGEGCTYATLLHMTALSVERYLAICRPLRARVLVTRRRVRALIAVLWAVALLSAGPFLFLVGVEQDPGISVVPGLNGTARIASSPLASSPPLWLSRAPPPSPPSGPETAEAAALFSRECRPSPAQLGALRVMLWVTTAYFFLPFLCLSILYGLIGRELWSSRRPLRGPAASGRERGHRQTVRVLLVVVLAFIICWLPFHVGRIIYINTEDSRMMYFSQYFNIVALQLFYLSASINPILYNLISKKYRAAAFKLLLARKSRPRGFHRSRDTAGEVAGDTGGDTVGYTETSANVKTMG
Test: Selectivity for the ghrelin receptor versus the motilin receptor
Type: binding
Text: The level of agonist activity and selectivity for representative compounds of the invention are shown below in Table 4.
measurement_label: Selectivity

| compound | result |
| --- | --- |
| CC(C)[C@@H]1NCCOc2ccccc2CCCNC(=O)[C@H](Cc2ccccc2)NC(=O)C2(CCCC2)NC1=O [Compound 9] | 117/1 |
| CCC(C)C1NCCOc2ccccc2CCCNC(=O)C(Cc2ccccc2)NC(=O)C(C)N(C)C1=O (stereo not shown) [compound 15] | >1700/1 |
| CCC(C)C1NCCOc2ccccc2CCCNC(=O)C(Cc2cccc(Cl)c2)NC(=O)C(C)N(C)C1=O (stereo not shown) [compound 24] | 3039/1 |
| CCC(C)C1NCCOc2ccccc2CCCNC(=O)C(Cc2cccs2)NC(=O)C(C)N(C)C1=O (stereo not shown) [compound 34] | >1000/1 |
| CCC(C)C1NCCOc2ccccc2CCCNC(=O)C(Cc2ccc3ccccc3c2)NC(=O)C(C)N(C)C1=O (stereo not shown) [compound 31] | 4900/1 |
| C[C@H]1NC(=O)C2(CCCC2)NCCOc2ccccc2/C=C/CNC(=O)[C@H](Cc2cccc(Cl)c2)NC1=O [compound 351] | 450/1 |
| CC(C)C[C@@H]1NCCOc2ccccc2/C=C/CNC(=O)[C@H](Cc2ccccc2Cl)NC(=O)C2(CCCC2)NC1=O [compound 20] | 1044/1 |

###

Biological target: human ghrelin receptor (hGHS-R1a) (Homo sapiens)
Construct: host or cells: CHO-K1 co-expressing Gα16 and mitochondrially targeted aequorin
Test: Aequorin functional assay (ghrelin receptor), CHO-K1 cells co-expressing Gα16 and aequorin
Assay type: cell-based
Conditions: activation of hGHS-R1a, FIG. 11; read-out: EC50

| molecule | EC50 [µM] |
| --- | --- |
| CC1C(=O)NC(Cc2ccc(F)cc2)C(=O)NCCCc2ccccc2O[C@H](C)CNC(C2CC2)C(=O)N1C (stereo partly shown) [compound 298] | 0.025 |

###

Each entry below lists one item and its recorded pKi value.
Molecular target: human growth hormone secretagogue receptor (hGHS-R1a) (Homo sapiens)
Construct: purchased PerkinElmer BioSignal #RBHGHSM; host or cells: HEK-293, stably transfected
Sequence (Q92847 whole entry): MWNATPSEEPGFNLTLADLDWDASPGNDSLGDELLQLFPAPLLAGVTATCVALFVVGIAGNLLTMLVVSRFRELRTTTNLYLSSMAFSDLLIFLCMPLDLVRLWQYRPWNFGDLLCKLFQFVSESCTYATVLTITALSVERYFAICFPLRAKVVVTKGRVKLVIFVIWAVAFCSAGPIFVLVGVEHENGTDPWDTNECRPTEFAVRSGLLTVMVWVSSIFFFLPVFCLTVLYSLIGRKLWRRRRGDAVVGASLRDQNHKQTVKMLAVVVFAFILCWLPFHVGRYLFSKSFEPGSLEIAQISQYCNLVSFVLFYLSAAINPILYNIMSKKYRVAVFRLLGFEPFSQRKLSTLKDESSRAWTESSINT
Assay: Competitive radioligand binding assay (ghrelin receptor), [125I]-ghrelin displacement on GHS-R/HEK 293 membranes
Settings: Binding activity at the human ghrelin receptor, [125I]-ghrelin displacement; read-out: Ki
pKi: −log10 of the molar value.

| given_smiles | pKi |
| --- | --- |
| O=C1NC2(CCCC2)C(=O)N[C@@H](Cc2ccccc2)C(=O)NCCCc2ccccc2OCCN[C@H]1CO | 6.00 to 7.00 |
| O=C1NC2(CCCC2)C(=O)N[C@@H](Cc2ccccc2)C(=O)NC/C=C/c2ccccc2OCCN[C@H]1Cc1cccs1 | 6.00 to 7.00 |
| CCC[C@@H]1NCCOc2ccccc2CCCNC(=O)[C@H](Cc2ccccc2)NC(=O)CN(C)C1=O | 6.00 to 7.00 |
| O=C1NC2(CCCC2)C(=O)N[C@@H](Cc2ccccc2)C(=O)NC/C=C/c2ccccc2OCCN[C@H]1Cc1cccc2ccccc12 | 5.00 to 6.00 |
| C[C@@H]1NCCOc2ccccc2CCCNC(=O)[C@H](Cc2ccccc2)NC(=O)C2(CCCC2)NC1=O | 6.00 to 7.00 |
| CCC[C@H]1NCCOc2ccccc2CCCNC(=O)[C@H](Cc2ccccc2)NC(=O)CN(C)C1=O | < 5.00 |
| CC[C@@H](C)[C@@H]1C(=O)N[C@H](Cc2ccccc2)C(=O)NCCCc2ccccc2OCCN[C@@H]([C@@H](C)CC)C(=O)N1C | 5.00 to 6.00 |
